- target_or_test_system: 5-HT1F receptor (Homo sapiens, UniProt P30939)
- Sequence (P30939 1-366): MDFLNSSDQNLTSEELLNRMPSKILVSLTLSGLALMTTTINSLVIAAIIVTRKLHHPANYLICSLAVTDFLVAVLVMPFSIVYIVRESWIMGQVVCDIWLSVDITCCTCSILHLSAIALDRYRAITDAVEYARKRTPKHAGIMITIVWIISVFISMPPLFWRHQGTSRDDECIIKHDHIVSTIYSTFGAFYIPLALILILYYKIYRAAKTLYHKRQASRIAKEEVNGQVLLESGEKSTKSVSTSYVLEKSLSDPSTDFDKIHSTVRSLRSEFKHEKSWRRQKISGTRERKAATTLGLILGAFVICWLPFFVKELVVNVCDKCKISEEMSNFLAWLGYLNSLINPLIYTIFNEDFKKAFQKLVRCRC
- assay_explanation: Radioligand ([3H]5-HT) binding to the 5-HT1F receptor subtype
- Set-up: expressed in transfected cells; host or cells: Ltk- cells (membranes)
- reported_conditions: Table I, [3H]5-HT displacement, transfected Ltk- cell membranes, 37° C.; read-out: 5-HT1F BINDING Ki
Structures can show the parent of a compound that is named as a salt.
Output satisfied for records whose Ki is lower than 50 nM, not satisfied for records at or above 50 nM.

Cc1cccc(CCN2CCC(c3c[nH]c4ccccc34)CC2)c1 [Example 9, hydrochloride]; satisfied

Exam item: Criterion: Ki strictly below 50 nM. Is it met by Clc1ccc2[nH]cc(C3CCN(CCc4ccccc4)CC3)c2c1 [Example 27, hydrochloride] ?
Marked response: satisfied

Exam item: Criterion: Ki strictly below 50 nM. Is it met by Cc1ccc2[nH]cc(C3CCN(CCc4ccccc4)CC3)c2c1 [Example 30, hydrochloride] ?
Marked response: satisfied

Exam item: Criterion: Ki strictly below 50 nM. Is it met by COc1ccc2[nH]cc(C3CCN(CCc4ccccc4)CC3)c2c1 [Example 28, hydrochloride] ?
Marked response: satisfied

Exam item: Criterion: Ki strictly below 50 nM. Is it met by Cc1ccc(CCN2CCC(c3c[nH]c4ccccc34)CC2)cc1 [Example 10, hydrochloride] ?
Marked response: not satisfied

Exam item: Criterion: Ki strictly below 50 nM. Is it met by Fc1cccc(CCN2CCC(c3c[nH]c4ccccc34)CC2)c1 [Example 2, hydrochloride] ?
Marked response: not satisfied

Exam item: Criterion: Ki strictly below 50 nM. Is it met by "c1ccc(COc2ccc(CCN3CCC(c4c[nH]c5ccccc45)CC3)cc2)cc1" ?
Marked response: not satisfied

Exam item: Criterion: Ki strictly below 50 nM. Is it met by COc1ccc(CCN2CCC(c3c[nH]c4ccccc34)CC2)cc1 [Example 33, hydrochloride] ?
Marked response: not satisfied
